The entries below come with measured Stability (Arbitrary units) Human 6 h values attached.
- assay.details: Stability of compounds in human blood plasma
- Type: in vitro ADME
Numbered stars: 1 amine (or outer) side, 2 acyl side, 3 side chain; on linkers, the order of the positions; unused ones are H or OH. Square brackets hold non-standard residues; d marks the D form. Peptide text beside a SMILES is read from it. * marks the point of attachment. ξ: configuration not given here. Gly(1-amidinopiperidin-4-yl) = N=C(N)N1CCC([C@H](N)C(=O)O)CC1; X1 = CC(C)c1oc([C@H](CO)N[*:1])nc1C(=O)[*:2]; Pro(3R-Ph) = O=C(O)[C@H]1NCC[C@@H]1c1ccccc1; Tic = O=C(O)[C@@H]1Cc2ccccc2CN1; Cha = N[C@@H](CC1CCCCC1)C(=O)O; NHPhenethyl = c1ccc(CCN*)cc1; ξDisc = O=C(O)C1NCc2ccccc21; Nle = CCCC[C@H](N)C(=O)O; X6 = OCCN(CCc1ccccc1)*
Remember to follow the number with its unit.

CSCC[C@H](NC(=O)C1c2ccccc2CN1C(=O)[C@H](CCCNC(=N)N)NC(=O)[C@H](CC1CCCCC1)NC(C)=O)C(=O)N1CC[C@H](c2ccccc2)[C@H]1C(=O)N[C@@H](CO)c1nc(C(=O)N(C)C)c(C(C)C)o1 (stereo partly drawn) [Compound P40-1] (Ac-[Cha]R[ξDisc]M[Pro(3R-Ph)][X1]-NMe2) : 108 Arbitrary units
CSCC[C@H](NC(=O)C1c2ccccc2CN1C(=O)[C@@H](NC(=O)[C@H](CC1CCCCC1)NC(C)=O)C1CCN(C(=N)N)CC1)C(=O)N1CC[C@H](c2ccccc2)[C@H]1C(=O)N[C@@H](CO)c1nc(C(=O)N(C)C)c(C(C)C)o1 (stereo partly drawn) [Compound P41-1] (Ac-[Cha][Gly(1-amidinopiperidin-4-yl)][ξDisc]M[Pro(3R-Ph)][X1]-NMe2) : 59 Arbitrary units
CCCC[C@H](NC(=O)[C@@H]1Cc2ccccc2CN1C(=O)[C@@H](NC(=O)[C@H](CC1CCCCC1)NC(C)=O)C1CCN(C(=N)N)CC1)C(=O)NCCc1ccccc1 [Compound P69, Ac-Cha-Gpg-Tic-Nle-N(H)CH2CH2Ph] (Ac-[Cha][Gly(1-amidinopiperidin-4-yl)][Tic][Nle]-NHPhenethyl) : 105 Arbitrary units
CSCC[C@H](NC(=O)[C@@H]1Cc2ccccc2CN1C(=O)[C@H](CCCNC(=N)N)NC(=O)[C@H](CC1CCCCC1)NC(C)=O)C(=O)N1CC[C@H](c2ccccc2)[C@H]1C(N)=O [Compound P31, Ac-Cha-Arg-Tic-Met-βPhPro-NH2] (Ac-[Cha]R[Tic]M[Pro(3R-Ph)]-NH2) : 93 Arbitrary units
CCCC[C@H](NC(=O)[C@@H]1Cc2ccccc2CN1C(=O)[C@@H](NC(=O)[C@H](CC1CCCCC1)NC(C)=O)C1CCN(C(=N)N)CC1)C(=O)N1CC[C@H](c2ccccc2)[C@H]1C(=O)N[C@@H](CO)c1nc(C(=O)N(C)C)c(C(C)C)o1 [Compound P53] (Ac-[Cha][Gly(1-amidinopiperidin-4-yl)][Tic][Nle][Pro(3R-Ph)][X1]-NMe2) : 110 Arbitrary units
CSCC[C@H](NC(=O)[C@@H]1Cc2ccccc2CN1C(=O)[C@@H](NC(=O)[C@H](CC1CCCCC1)NC(C)=O)C1CCN(C(=N)N)CC1)C(N)=O [Compound P67, Ac-Cha-Gpg-Tic-Met-NH2] (Ac-[Cha][Gly(1-amidinopiperidin-4-yl)][Tic]M-NH2) : 97 Arbitrary units

// next entry
Field request: Stability (Arbitrary units) Human 6 h | item: CCCC[C@H](NC(=O)[C@@H]1Cc2ccccc2CN1C(=O)[C@H](CCCNC(=N)N)NC(=O)[C@H](CC1CCCCC1)NC(C)=O)C(=O)N(CCO)CCc1ccccc1 [Compound P81, Ac-Cha-Arg-Tic-Nle-N(CH2CH2OH)CH2CH2Ph] (Ac-[Cha]R[Tic][Nle]-X6)
104 Arbitrary units
